Quick list: IL-6 per entry.
tested on: IL-6; test: Cytokine production induced by sample formulations: IL-6; assay type: in vivo; conditions: Table 4; mice, i.v., 0.5 mpk, 6 hours; in pg/mL (unit assumed)
When you answer, write just the number.

Consider the reported IL-6 for these compounds:
smilesEntry	value
CCCCCCCCCCCCCCN(CCCCCCCCCCCCCC)CCN(CCCCCCCCCCCCCC)CCN1CCN(CCN(CCCCCCCCCCCC)CCCCCC(=O)OCCCCC)CC1	301
CCCCC/C=C\C/C=C\CCCCCCCCN(CCCCCCCCCCCC)CCN1CCN(CCN(CCCCCCCCCCCC)CCN(CCCCCCCCCCCC)CCCCCCCCCCCC)CC1	42
CCCCCCCCCCCCN(CCCCCCCCCCCC)CCN1CCN(CCN(CCCCCCCCC)CCN(CCCCCCCCC)CCCCCCCCC)CC1	70
CCCCCCCCCCCCN(CCCCCCCCCCCC)CCN(CCCCCCCCCCCC)CCN1CCN(CCN(CCCCCCCCCCCC)CCCCCC(=O)OCCCCC)CC1	31

[Q] Quick one: IL-6 for CCCCCCCCCCCCN(CCCCCCCCCCCC)CCN(CCCCCCCCCCCC)CC(=O)N1CCN(C(=O)CN(CCCCCCCCCCCC)CCCCCCCCCCCC)CC1 ?
[A] 250

[Q] Next compound up: CCCCC/C=C\C/C=C\CCCCCCCCN(CCCCCCCC/C=C\C/C=C\CCCCC)CCN(CCCCCCCC/C=C\C/C=C\CCCCC)CCN1CCN(CCN(CCCCCCCCCCCC)CCCCCCCCCCCC)CC1
[A] 28

[Q] Next compound up: CCCCCCCCCCCCCCN(CCCCCCCCCCCCCC)CCN1CCN(CCN(CCCCCCCCCCCC)CCN(CCCCCCCCCCCC)CCCCCCCCCCCC)CC1
[A] 17

[Q] Next compound up: CCCCCCCCCCCCN(CCCCCCCCCCCC)CCN1CCN(CCN(CCCCCC)CCN(CCCCCC)CCCCCC)CC1
[A] 164

[Q] Next compound up: CCCCCCCCCCCCCCN(CCCCCCCCCCCCCC)CCN(CCCCCCCCCCCCCC)CCN1CCN(CCN(CCCCCCCCC)CCCCCCCCC)CC1
[A] 300

[Q] Next compound up: CCCCC/C=C\CCCCCN(CCCCC/C=C\CCCCC)CCN1CCN(CCN(CCCCCCCCCCCC)CCN(CCCCCCCCCCCC)CCCCCCCCCCCC)CC1
[A] 131

====

test: Particle size and polydispersity index of nanoparticle compositions (Zetasizer Nano ZS); assay type: physicochemical; details: Table 20-1; rows without footnote mark
Quick list: Size (nm) per entry.
Lab book: enter the figure in nm, no units written.

> print(dat)
                                smilesentry  value
1  CCCCCCCCCCCCCCN(CCO)CCN(CCCCCCCCCCCCCC)CCCCCCCCCCCCCC  147.1
2  CCCCCCCCCCCCN(CCO)CCN(CCCCCCCCCCCC)CCCCCC(=O)OCCCCC   71.8
3  CCCCCCCCCCCCN(CCO)CCN(CCCCCCCCC)CCCCCCCCC   70.1
4  CCCCC/C=C\C/C=C\CCCCCCCCN(CCCCCCCC/C=C\C/C=C\CCCCC)CCN(CCO)CCCCCCCCCCCC   74.3
5  CCCCCCCCCCCCN(CCCCCCCCCCCC)CCN(CCO)CCCCCCCC(=O)OC(CCCCCCCC)CCCCCCCC   64.5

[Q] Quick one: Size (nm) for CCCCCCCCCCCCN(CCCCO)CCN(CCCCCCCCCCCC)CCCCCCCCCCCC ?
[A] 73.8

[Q] Next compound up: CCCCCCCOC(=O)CCCCCN(CCO)CCN(CCCCCC(=O)OCCCCCCC)CCCCCC(=O)OCCCCCCC
[A] 119.3

[Q] Next compound up: CCCCCCCCCCCCN(CCCCCCCCCCCC)CCNCCO
[A] 74.9

====

system: hEPO mRNA expression; test: Expression of hEPO in rats after intravenous administration; assay type: in vivo; settings: Table 6; rats, i.v., 0.2 mg/kg or 0.5 mg/kg, 24 hours
metric: hEPO (pg/mL) 24 hours
Lab book: enter the figure in pg/mL, no units written.

> print(dat)
                                   compound          systemtested                 metric  unitstring   value
1  CCCCCCCCCCCCN(CCCCCCCCCCCC)CCN(CCCCCCCCCCCC)CCN1CCN(CCN(CCCCCCCC)CCCCCCCC)CC1  hEPO mRNA expression  hEPO (pg/mL) 24 hours       pg/mL   75571
2  CCCCCCCCCCCCN(CCCCCCCCCCCC)CCN(CCCCCCCCCCCC)CCN1CCN(CCN(CCCCCCCCCCCC)CCCCCCCCCCCC(=O)OC)CC1  hEPO mRNA expression  hEPO (pg/mL) 24 hours       pg/mL   67965
3  CCCCCCCCCCCCN(CCCCCCCCCCCC)CCN(CCCCCCCCCCCC)CCN1CCN(CCN(CCCCCCCCCCCC)CCCCCC(=O)OCCCCC)CC1  hEPO mRNA expression  hEPO (pg/mL) 24 hours       pg/mL  165404
4  CCCCCCCCCCCCN(CCCCCCCCCCCC)CCN(CCCCCCCCCCCC)CCN1CCN(CCN(CCCCCC(=O)OCCCCC)CCCCCC(=O)OCCCCC)CC1  hEPO mRNA expression  hEPO (pg/mL) 24 hours       pg/mL   58805
5  CCCCCC=CCC=CCCCCCCCCC(CCCCCCCCC=CCC=CCCCCC)OC(=O)CCCN(C)C (stereo not drawn) [MC3, reference compound]  hEPO mRNA expression  hEPO (pg/mL) 24 hours       pg/mL  436243

Consider the additional compound presented here.
[Q] What is its hEPO (pg/mL) 24 hours for hEPO mRNA expression? Entry: CCCCCCCCCCCCN(CCCCCCCCCCCC)CCN(CCCCCCCCCCCC)CCN1CCN(CCN(CCCCCCCCCCCC(=O)OC)CCCCCCCCCCCC(=O)OC)CC1
[A] 17184

====

system: IP-10; test: Cytokine production induced by sample formulations: IP-10; assay type: in vivo; conditions: Table 17-4; mice, i.v., 0.5 mpk, 6 hours; in pg/mL (unit assumed)
Quick list: IP-10 per entry.
When you answer, write just the number.

> print(dat)
                                   molecule  systemtested  metric  value
1  CCCCCCCCCN(CCO)CCCCCCCCC [Compound 17-10, 2-(Dinonylamino)ethan-1-ol]         IP-10   IP-10    243
2  CCCCC/C=C\C/C=C\CCCCCCCCN(CCO)CCCCCC [Compound 17-2]         IP-10   IP-10   72.8
3  CCCCCCCC/C=C\CCCCCCCCN(CCO)CCCCCCCC/C=C\CCCCCCCC [Compound 17-8]         IP-10   IP-10    135

[Q] Quick one: IP-10 for CCCCCCCCCCCCCCN(CCO)CCCCCCCCCCCCCC [Compound 17-7, 2-(Ditetradecylamino)ethan-1-ol] ?
[A] 100

[Q] Next molecule up: CCCCCCCCCCCCN(CCCO)CCCCCCCCCCCC [Compound 17-12, 3-(Didodecylamino)propan-1-ol]
[A] 148

[Q] Next molecule up: CCCCCCCCCCCCN(CCCCO)CCCCCCCCCCCC [Compound 17-13, 4-(Didodecylamino)butan-1-ol]
[A] 222

[Q] Next molecule up: CCCCC/C=C\C/C=C\CCCCCCCCN(CCO)CCCCCCCCCCCCCC [Compound 17-5]
[A] 300

[Q] Next molecule up: CCCCC/C=C\C/C=C\CCCCCCCCN(CCO)CCCCCCCCCCCCCCCCCC [Compound 17-6]
[A] 134

====

Quick list: Lipid/MC3 hEPO S.D. (rats) per entry.
Test system: hEPO mRNA expression
Experiment: Expression of hEPO in rats after intravenous administration
Assay type: in vivo
Conditions: hEPO expression relative to MC3, S.D. rats, intravenous
Procedure: PBS (phosphate buffered saline) is used as control. Formulations were prepared according to Table 5 and included mRNA encoding hEPO. […] After the 48 hour time point, livers and spleens were harvested and frozen.
When you answer, write just the number.

> print(dat)
                                smilesentry          systemtested  value
1  CCCCCCCCCCCCN(CCCCCCCCCCCC)CCN(CCCCCCCCCCCC)CCN1CCN(CCN(CCCCCCCCCCCC)CCCCCCCCCCCC(=O)OC)CC1  hEPO mRNA expression  0.095
2  CCCCCCCCCCCCN(CCCCCCCCCCCC)CCN(CCCCCCCCCCCC)CCN1CCN(CCN(CCCCCCCC)CCCCCCCC)CC1  hEPO mRNA expression   0.20

Consider the additional molecule presented here.
[Q] What is its Lipid/MC3 hEPO S.D. (rats) for hEPO mRNA expression? Entry: CCCCCCCCCCCCN(CCCCCCCCCCCC)CCN(CCCCCCCCCCCC)CCN1CCN(CCN(CCCCCCCCCCCC(=O)OC)CCCCCCCCCCCC(=O)OC)CC1
[A] 0.031

Reference source: patent US10195156B2
